# pIC50 per entry
Target: Cathepsin S (UniProt P25774)
Experiment: Cathepsin enzyme inhibition assay (fluorogenic peptide substrate Z-Val-Val-Arg-AMC), Cathepsin S
Format: biochemical, human and mouse
Details: enzyme 1 nM, substrate 20 μM, pH 6.5; read-out: CatS IC50
Scale: negative log10 of molar concentration, which is what pIC50 denotes.

Prompt line: What value of pIC50 has been recorded for this entry: Cc1cc(N2C[C@H](S(=O)(=O)c3ccccc3C(F)(F)F)C[C@H]2C(=O)NC2(C#N)CC2)n(-c2ccc(C(F)(F)F)cc2)n1
Response line: 9.68

----------
Biological target: Cathepsin S (UniProt P25774)
Assay: Cathepsin enzyme inhibition assay (fluorogenic peptide substrate Z-Val-Val-Arg-AMC), Cathepsin S
Assay type: biochemical, human and mouse
Settings: enzyme 1 nM, substrate 20 μM, pH 6.5; read-out: CatS IC50
Method: Cathepsin Enzyme Inhibition Assay Enzyme activity is measured by observing the increase in fluorescence intensity caused by cleavage of a peptide substrate containing a fluorophore whose emission is quenched in the intact peptide. Assay buffer: 100 mM potassium phosphate pH 6.5, EDTA-Na 5 mM, Triton X-100 0.001%, DDT 5 mM. […] Enzyme is added to the substance dilutions in 96-well microtitre plates and the reaction is started with substrate. […] IC50 are calculated by standard methods. […]
QUANTITY: pIC50
Scale: negative log10 of molar concentration, which is what pIC50 denotes.

C=CCOc1ccccc1S(=O)(=O)[C@H]1CN[C@H](C(=O)NC2(C#N)CC2)C1 [Example 453] : 6.07
N#CC1(NC(=O)[C@@H]2C[C@@H](S(=O)(=O)c3ccccc3C(F)(F)F)CN2c2ccccc2[N+](=O)[O-])CC1 [Example 166] : 9.22
Cc1cc(N2C[C@H](S(=O)(=O)c3ccccc3C(F)(F)F)C[C@H]2C(=O)NC2(C#N)CC2)nn1C [Example 255] : 8.25

Query compound follows.
Prompt line: What value of pIC50 has been recorded for this entry: N#CC1(NC(=O)[C@@H]2C[C@@H](S(=O)(=O)c3ccccc3Cl)CN2S(=O)(=O)c2ccc(-c3ccccc3)cc2)CC1 [Example 316]
Response line: 9.52

----------
Molecular target: Cat L (UniProt P07711)
Assay: Cathepsin enzyme inhibition assay (fluorogenic peptide substrate Z-Val-Val-Arg-AMC), Cathepsin L
Assay type: biochemical, human and mouse
Settings: enzyme 1 nM, substrate 20 μM, pH 6.5; read-out: CatL IC50
QUANTITY: IC50

CC(=O)N1C[C@H](S(=O)(=O)c2ccccc2C(F)(F)F)C[C@H]1C(=O)NC1(C#N)CC1 [Example 101] : ≥ 25 µM
N#CC1(NC(=O)C2CC(S(=O)(=O)c3ccccc3C(F)(F)F)CN2c2ccccc2-c2ccccc2)CC1 (stereo not drawn) [Example 343] : ≥ 25 µM

Query compound follows.
Prompt line: What value of IC50 has been recorded for this entry: N#CC1(NC(=O)[C@@H]2C[C@@H](S(=O)(=O)c3ccccc3Cl)CN2C2CCCCC2)CC1 [Example 85]
Response line: ≥ 25 µM

----------
# log10(IC50) per entry
Target: UniProt:P25774
Test: Cathepsin enzyme inhibition assay (fluorogenic peptide substrate Z-Val-Val-Arg-AMC), Cathepsin S
Assay type: biochemical, human and mouse
Conditions: enzyme 1 nM, substrate 20 μM, pH 6.5; read-out: CatS IC50
Structures can show the parent of a compound that is named as a salt.
In plain terms, each number is the log10 of measured IC50 in nM.

Prompt line: Checklist item: log10(IC50) tested on UniProt:P25774, entry N#CC1(NC(=O)[C@@H]2C[C@@H](S(=O)(=O)c3ccccc3Cl)CN2C(=O)C2(c3ccc(Cl)cc3)CC2)CC1 , value?
Response line: -0.70

Prompt line: Same again, this time with N#CC1(NC(=O)[C@@H]2C[C@@H](S(=O)(=O)c3ccc(-c4ccc(F)cc4F)cc3C(F)(F)F)CN2C(=O)C2(C(F)(F)F)CC2)CC1
Response line: -0.48

Prompt line: Same again, this time with N#CCNC(=O)[C@@H]1C[C@@H](S(=O)(=O)c2ccccc2)CN1C(=O)C1CCCCC1
Response line: 0.72

Prompt line: Same again, this time with N#CC1(NC(=O)[C@@H]2C[C@@H](S(=O)(=O)c3ccc(N4CCOCC4)cc3C(F)(F)F)CN2)CC1 [Example 29, hydrochloride]
Response line: -0.10

Prompt line: Same again, this time with CC(C)(C)OC(=O)N1C[C@H](S(=O)(=O)c2ccc(Br)cc2C(F)(F)F)C[C@H]1C(=O)NC1(C#N)CC1
Response line: 0.43

Prompt line: Same again, this time with N#CC1(NC(=O)[C@H]2C[C@@H](S(=O)(=O)c3ccc(Cl)cc3Cl)CN2c2ncccc2C(F)(F)F)CC1
Response line: 2.82
